- experimental system: furin, P09958;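 further: purified furin at 1:10 enzyme:substrate in 50 mM HEPES pH 7.5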
- Sequence (P09958 whole entry): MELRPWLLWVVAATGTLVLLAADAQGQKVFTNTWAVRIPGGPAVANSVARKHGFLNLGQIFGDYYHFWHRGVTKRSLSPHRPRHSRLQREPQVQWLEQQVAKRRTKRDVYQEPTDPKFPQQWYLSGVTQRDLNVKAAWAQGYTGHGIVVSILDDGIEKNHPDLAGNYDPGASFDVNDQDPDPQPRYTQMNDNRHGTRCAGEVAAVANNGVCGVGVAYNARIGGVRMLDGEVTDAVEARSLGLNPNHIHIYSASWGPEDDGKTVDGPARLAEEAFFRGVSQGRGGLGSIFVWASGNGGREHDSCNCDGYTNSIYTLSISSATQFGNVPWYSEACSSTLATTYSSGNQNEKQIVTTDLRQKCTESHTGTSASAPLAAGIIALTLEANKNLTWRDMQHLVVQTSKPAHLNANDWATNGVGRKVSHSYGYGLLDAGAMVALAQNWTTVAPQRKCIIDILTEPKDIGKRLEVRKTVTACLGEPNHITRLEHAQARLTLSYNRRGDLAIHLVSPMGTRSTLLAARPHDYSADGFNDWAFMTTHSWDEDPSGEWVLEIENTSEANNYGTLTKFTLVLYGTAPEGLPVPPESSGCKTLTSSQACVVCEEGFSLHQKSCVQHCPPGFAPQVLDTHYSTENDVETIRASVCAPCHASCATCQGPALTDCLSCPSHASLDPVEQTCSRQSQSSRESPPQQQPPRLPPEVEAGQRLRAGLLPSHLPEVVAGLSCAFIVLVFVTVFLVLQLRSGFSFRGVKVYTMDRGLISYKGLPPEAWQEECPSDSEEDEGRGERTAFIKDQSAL
- test method notes: furin cleavage Z-score vs untreated control; higher = more cleavage, active = 3.5 or more, inactive = 1 or less, 8 variable residues between constant flanks
- particulars: 7.5 min
The other results are listed elsewhere or left out. How many sequences the whole screen found active is unknown.
measurement name: furin cleavage Z-score
Keep it simple and answer with nothing but the number.

The cases that follow already have their furin cleavage Z-score on record.
CARWGRSAQGAGNASASA [FS-3130]; 4.05
CARVRREDTPAGNASASA [FS-3125]; 7.61
CAVPGAVYTFAGNASASA [HC552]; -0.518

Sample CAEVVTRTWVAGNASASA [HC150] ; furin cleavage Z-score observed: -0.769
